Just for reference, PubChem BioAssay (NCI) is where these values come from.

Kindly supply the reported TGI values for the records listed here.
system: CCRF-CEM leukemia; assay: NCI tumour cell line growth inhibition, 48 h

Note down TGI recorded for CCc1nc(N)nc(N)c1-c1ccc(N2CCOCC2)c(N=[N+]=[N-])c1
> 100 µM

Output TGI of COc1cc(/C=C/C(=O)c2nc3cc(F)ccc3nc2C)cc(OC)c1OC
> 21 µM

Give the reported TGI for this compound. O/N=C1/C(=C/c2ccc(OCc3ccccc3)cc2)CCCC1C(NO)c1ccc(OCc2ccccc2)cc1 (centres undefined)
> 100 µM

Identify measured TGI corresponding to COc1ccc(-c2c(Nc3ccccn3)nc3c(C4=CCCCC4)c(-c4ccccc4)[nH]n3c2=O)cc1
6.58 µM

Supply recorded TGI for COC(=O)c1sc(=S)sc1SCc1cccc(CSc2sc(=S)sc2C(=O)OC)c1 here.
> 100 µM

Specify reported TGI for the compound shown: Cc1cnc2[nH]c(-c3cccc4ccccc34)cc(=O)c2c1
> 100 µM

Please indicate TGI recorded for CC(=O)n1c2ccc(Br)cc2c2nc3ccccc3nc21
> 100 µM

For the compound NC(CCC(=O)O)C(=O)NC(Cc1ccc(N(CCCl)CCCl)cc1)C(=O)O (centres undefined) , give its reported TGI.
> 100 µM

Provide only the value of recorded TGI for CC1=N/C(=C\c2ccc(C)cc2)C(=O)O1
> 100 µM

Indicate the recorded TGI value for this compound: CC(=O)Oc1ccc(-c2nnc(-c3ccc(OC(C)=O)cc3)nn2)cc1
> 100 µM

Give the reported value of TGI for this record: O=C(O)CSc1cc(NS(=O)(=O)c2ccc(Br)cc2)c2ccccc2c1O
> 44.8 µM

Identify measured TGI corresponding to C=CCN1C(=O)NC(=O)/C(=C/c2c3ccccc3cc3ccccc23)C1=O
> 100 µM

Tell us which TGI value is on record for COc1ccc(Cn2c(Br)c3c(c2-c2cc(OC)c(OC)c(OC)c2)CCc2sc(N)nc2-3)cc1
4.4 µM

// Input: O=C1NC(=NCc2cccs2)O/C1=C\c1ccc2ncccc2c1 . Output its TGI only.
16.7 µM

State, in one line, measured TGI of COc1cc2c3c(n(CCCN)c(=O)c2cc1OC)-c1ccc(N)cc1C3=O
7.28 µM

Indicate its recorded TGI; the compound in question is COc1cc2c(cc1C)NC(=O)/C2=C\c1ccc(Oc2ccccc2)cc1
27.5 µM

For the compound COc1cc(Nc2cc(Cl)cc(Cl)c2)nc(N)n1 , give its reported TGI.
43.3 µM

Query TGI for CCOC(=O)C1C(NC(N)=O)N(Cc2ccccc2)C(=O)N1Cc1ccccc1 (centres undefined)
> 100 µM

Dear colleague, please send me the reported TGI for S=c1[nH]nc(Cn2c3ccc(Br)cc3c3nc4ccccc4nc32)o1 when you can.
> 100 µM

Output TGI of N#CCC(=O)N/N=C\C(O)C(O)C(O)C(O)CO (centres undefined)
> 100 µM

Find the measured TGI of Cc1cc2nnn(C3CCCCO3)c2cc1C (centres undefined) and report it.
> 100 µM

State, in one line, measured TGI of Cc1nn(C(=O)Cc2ccccc2)c2c1C(c1ccc(/C=C/c3ccccc3)cc1)SC(N)=N2 (centres undefined)
> 100 µM

For FC(F)(F)c1cccc(CNC2CCN(CCc3ccccc3)CC2)c1 , write its TGI.
75.8 µM

Specify reported TGI for the compound shown: CCOC(=O)c1c(Cl)c2c(n1Cc1ccccc1)-c1oncc1CCC2
> 100 µM
